Assay: protein stability index of a GFP-peptide fusion (yeast GPS) (PSI 1-4); higher = more stable; sorted into four equal gates, so the index is relative within each strain
Conditions: san1∆
Recorded protein stability index, one value per entry.
reportedProperty: protein stability index

>>> quantitativeresult("KVTSTLLEQDTSTEKLY [PRE9]")
2.65
>>> quantitativeresult("STVAKNVSFVLPDEKSD [YCG1]")
3.09
>>> quantitativeresult("GSVMSASVEIVFHDPDH [SMC3]")
2.4
>>> quantitativeresult("VDVAKDINVKDLKASQR [RPT6]")
2.63
>>> quantitativeresult("ESVPIYSIDEFFLQRKL [BRR2]")
2.96
>>> quantitativeresult("APLVLLSALDHYERTQT [RPN8]")
2.39
>>> quantitativeresult("PRQLHNTHWGLVCPAET [RPB2]")
1.47
>>> quantitativeresult("VSIKDSTGCVVGLSQPD [YMR129W/POM152]")
2.05
>>> quantitativeresult("QRQERLRQQQQQQDQPE [RPN10]")
2.86
>>> quantitativeresult("ISVTDTEVERAKSLLKL [COR1]")
3.08
